Target: T1, human alpha CGRP (SEQ ID NO: 80) (human, not fully specified)
T1 construct: also called human αCGRP; hαCGRP
T1 peptide: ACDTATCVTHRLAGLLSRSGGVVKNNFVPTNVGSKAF
Assay: SPR, 37 C, mutein captured, CGRP analyte
endpoint: Kd (pM)
Give the value in pM but do not write pM after it.

lipocalin mutein SEQ ID NO: 4 (designed binder, biotinylated by NHS chemistry for capture in SPR) QDSTSDLIPAPPLSKVPLQQNFQDNQFHGKWYVVGWAGNTLLREDKDPTKMQATIYELKEDKSYNVTWVYFSEKKCNYHIETFVPGSQPGEFTLGTIKSYPGETSILVRVVSTNYNQHAMVFFKGVSQNREIFEITLYGRTKELTSELKENFIRFSKSLGLPENHIVFPVPIDQCIDGSAWSHPQFEK : 1820

input: For the binder shown here, lipocalin mutein SEQ ID NO: 22 (designed binder, biotinylated by NHS chemistry for capture in SPR) QDSTSDLIPAPPLSKVPLQQNFQDNQFHGKWYVVGRAGNDALREDKDPEKMEATIYELKEDKSYNVTDVGLVQKKCMYVIHTFVPGGQPGEFTLGNIKSYPGVTSALVRVVSTNYNQHAMVFVKLVKQNRELFEITLYGRTKELTSELKENFIRFSKSLGLPENHIVFPVPIDQCIDGSAWSHPQFEK , give the reported Kd.
output: 9

input: Now consider lipocalin mutein SEQ ID NO: 25 (designed binder, biotinylated by NHS chemistry for capture in SPR) QDSTSDLIPAPPLSKVPLQQNFQDNQFHGKWYVVGWAGNTLLREDKDPIKMQAKIYELKEDRSYNVTWVYFADKKCNYHIETFVPGSQPGEFTLGTIKSYPGETPILVRVVSTNYNQHAMVFFKGVNQNREIFEIILYGRTKELTNELKENFIRFSKSLGLPENHIVFPVPIDQCIDGSAWSHPQFEK .
output: 6
